B1: POLD4 (parent)
chain: ITDSYPVVKRREGPAGHSKGELAP

Variants of: B1
MEASUREMENT PROTOCOL: protein stability index of a GFP-peptide fusion (GPS, HEK-293T) (PSI 1-6); higher = more stable;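 also: lentivirally expressed fusions sorted by FACS into six bins by GFP to DsRed ratio, PSI derived from sequencing read proportions per bin multiplied by bin number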
MEASUREMENT CONDITIONS: c terminus: a fixed tail appended
# label = true if protein stability index >= 3 else false

[
  {
    "MUTANT ID": "P14W",
    "QUALITATIVE LABEL": "false"
  },
  {
    "MUTANT ID": "S18M",
    "QUALITATIVE LABEL": "false"
  },
  {
    "MUTANT ID": "T2S",
    "QUALITATIVE LABEL": "true"
  },
  {
    "MUTANT ID": "V7S",
    "QUALITATIVE LABEL": "true"
  },
  {
    "MUTANT ID": "V8M",
    "QUALITATIVE LABEL": "true"
  },
  {
    "MUTANT ID": "H17C",
    "QUALITATIVE LABEL": "false"
  },
  {
    "MUTANT ID": "P24W",
    "QUALITATIVE LABEL": "false"
  },
  {
    "MUTANT ID": "G20F",
    "QUALITATIVE LABEL": "false"
  },
  {
    "MUTANT ID": "L22R",
    "QUALITATIVE LABEL": "false"
  },
  {
    "MUTANT ID": "D3V",
    "QUALITATIVE LABEL": "false"
  },
  {
    "MUTANT ID": "G16P",
    "QUALITATIVE LABEL": "true"
  },
  {
    "MUTANT ID": "T2W",
    "QUALITATIVE LABEL": "true"
  },
  {
    "MUTANT ID": "L22D",
    "QUALITATIVE LABEL": "true"
  },
  {
    "MUTANT ID": "E21G",
    "QUALITATIVE LABEL": "true"
  },
  {
    "MUTANT ID": "P14N",
    "QUALITATIVE LABEL": "true"
  },
  {
    "MUTANT ID": "P24N",
    "QUALITATIVE LABEL": "true"
  },
  {
    "MUTANT ID": "S18N",
    "QUALITATIVE LABEL": "false"
  },
  {
    "MUTANT ID": "S18Y",
    "QUALITATIVE LABEL": "false"
  },
  {
    "MUTANT ID": "G16I",
    "QUALITATIVE LABEL": "false"
  },
  {
    "MUTANT ID": "R11S",
    "QUALITATIVE LABEL": "true"
  },
  {
    "MUTANT ID": "A15H",
    "QUALITATIVE LABEL": "false"
  },
  {
    "MUTANT ID": "H17D",
    "QUALITATIVE LABEL": "false"
  },
  {
    "MUTANT ID": "H17Y",
    "QUALITATIVE LABEL": "false"
  },
  {
    "MUTANT ID": "G16C",
    "QUALITATIVE LABEL": "true"
  },
  {
    "MUTANT ID": "V8C",
    "QUALITATIVE LABEL": "true"
  },
  {
    "MUTANT ID": "Y5Q",
    "QUALITATIVE LABEL": "true"
  },
  {
    "MUTANT ID": "V7K",
    "QUALITATIVE LABEL": "true"
  },
  {
    "MUTANT ID": "A23Y",
    "QUALITATIVE LABEL": "true"
  },
  {
    "MUTANT ID": "G20Q",
    "QUALITATIVE LABEL": "false"
  },
  {
    "MUTANT ID": "G20S",
    "QUALITATIVE LABEL": "false"
  },
  {
    "MUTANT ID": "S18C",
    "QUALITATIVE LABEL": "true"
  },
  {
    "MUTANT ID": "T2D",
    "QUALITATIVE LABEL": "true"
  },
  {
    "MUTANT ID": "I1V",
    "QUALITATIVE LABEL": "true"
  },
  {
    "MUTANT ID": "E12W",
    "QUALITATIVE LABEL": "false"
  },
  {
    "MUTANT ID": "K19I",
    "QUALITATIVE LABEL": "false"
  },
  {
    "MUTANT ID": "V8H",
    "QUALITATIVE LABEL": "true"
  },
  {
    "MUTANT ID": "Y5R",
    "QUALITATIVE LABEL": "true"
  },
  {
    "MUTANT ID": "L22C",
    "QUALITATIVE LABEL": "true"
  },
  {
    "MUTANT ID": "G16A",
    "QUALITATIVE LABEL": "true"
  },
  {
    "MUTANT ID": "I1P",
    "QUALITATIVE LABEL": "true"
  },
  {
    "MUTANT ID": "D3I",
    "QUALITATIVE LABEL": "false"
  },
  {
    "MUTANT ID": "R10Y",
    "QUALITATIVE LABEL": "true"
  },
  {
    "MUTANT ID": "D3M",
    "QUALITATIVE LABEL": "true"
  },
  {
    "MUTANT ID": "T2I",
    "QUALITATIVE LABEL": "true"
  }
]

# credit: the supplement of paper PMC10567573
